Reported TGI is given for each of the following compounds.
test system: COLO 205 colon; assay: NCI tumour cell line growth inhibition, 48 h
Give your result in µM as a bare value.

[[record]]
compound = "CCOC(=O)C1=C(Nc2ccc(OC)cc2)C(N)=NC1=N"
endpoint = "TGI"
unit_tag = "µM"
result_value = 10.1

[[record]]
compound = "C[C@@H]1CC[C@@H]2[C@@H]1[C@H](OC(=O)/C=C/C1CCCCC1)[C@]1(C3CCCCC3)C[C@@H](OC(=O)CO)[C@@]2(C)O1"
endpoint = "TGI"
unit_tag = "µM"
result_value = 30

[[record]]
compound = "COC(=O)C1=C(C)NC(C)=C(C(=O)OC)C1c1cccc(/[N+]([O-])=C/c2ccccc2)c1"
endpoint = "TGI"
unit_tag = "µM"
result_value = 30.5


Please turn your attention to the following entry.
Data point: Cc1ccc(C)n1-c1ccccc1C1C=Cn2c(=O)oc3c(OC(C)C)c(OC(C)C)c(O)c1c32 (stereo not given) ; TGI = 30.9

====

system: TK-10 renal; test: NCI tumour cell line growth inhibition, 48 h
ENDPOINT: TGI (µM)
Numbers only here, please. The scale is µM.

[[record]]
compound = "COc1cc2c(cc1OC)C(Cl)C(c1ccc(Br)cc1)=C2Cl (centres undefined)"
target_desc = "TK-10 renal"
endpoint = "TGI"
unit_tag = "µM"
result_value = 23.6

[[record]]
compound = "c1ccc2c(N=NSc3ncnc4nc[nH]c34)c3ccccc3nc2c1"
target_desc = "TK-10 renal"
endpoint = "TGI"
unit_tag = "µM"
result_value = 6.37

[[record]]
compound = "Clc1ccc2c(NC3CCC(N4CCCCC4)CC3)ccnc2c1 (centres undefined)"
target_desc = "TK-10 renal"
endpoint = "TGI"
unit_tag = "µM"
result_value = 48.8


Recorded result, Nc1ccc(C#Cc2ccccc2C#CCCCCO)cc1 , TGI: 46.5

====

tested on: BT-549 breast; test: NCI tumour cell line growth inhibition, 48 h
TGI for assorted molecules

[[record]]
molecule = "CC(=O)NC1C(OCc2ccccc2)OC(CO)C(O)C1OC(C)C(=O)NC(C(=O)NC(CCC(=O)NCCCNc1ccc([N+](=O)[O-])c2[nH]c3ccccc3c(=O)c12)C(N)=O)C(C)C (stereo not drawn)"
result_value = "> 100 µM"

[[record]]
molecule = "Cc1cc2nc3c(C#N)c(C)c(CCCl)c(Cl)n3c2cc1C"
result_value = "7.15 µM"


Kindly review the next molecule as well.
The measured TGI associated with O=C1/C=C/[C@@H](O)[C@@H]2C[C@@H](O)C[C@H]2/C=C/CCC[C@H](CCO)O1 reads > 31.5 µM

====

tested on: SK-MEL-28 melanoma; assay: NCI tumour cell line growth inhibition, 48 h
ENDPOINT: TGI

// solved cases for TGI follow
[[record]]
compound = "OC1OCC(COc2cc(Cl)c(Cl)cc2Cl)OC1O (centres undefined)"
endpoint = "TGI"
result_value = "> 100 µM"

[[record]]
compound = "O=C(CSc1nc2ccc(I)cc2c(=O)n1Cc1ccccc1)Nc1ccccc1"
endpoint = "TGI"
result_value = "> 100 µM"

[[record]]
compound = "CCn1c(CCCc2nc3c([nH]2)c(=O)n(C)c(=O)n3C)nc2c1c(=O)n(C)c(=O)n2C"
endpoint = "TGI"
result_value = "> 100 µM"


Summary: CCN1CCN(c2ccc(NC(=O)Nc3nc4ccc(-c5ccccc5OC)cc4s3)cc2)CC1 , SK-MEL-28 melanoma, TGI = 3.26 µM

Value sought: TGI, system SK-MEL-28 melanoma, item CC(=O)C1=C(C)N(Cc2ccccc2)C2(O)C=CC(=O)C3=C(O)c4ccccc4C(=O)C312 (centres undefined) . Result: 6.1 µM

Lab entry: SK-MEL-28 melanoma assay, compound N=C1C=CC(=C(c2ccc(N)cc2)c2ccc(N)cc2)C=C1 , TGI = 26.1 µM

Entry COC(=O)N[C@@H]1C[C@H]2CC[C@]1(O[Si](C(C)C)(C(C)C)C(C)C)C(=O)C2 ; assay system SK-MEL-28 melanoma; TGI recorded at 36.8 µM

Entry NC(=Nc1ccccc1)N/N=C/c1c[nH]c2ccccc12 ; assay system SK-MEL-28 melanoma; TGI recorded at 8.77 µM

====

Each entry below carries its reported TGI.
system: SK-MEL-28 melanoma; test: NCI tumour cell line growth inhibition, 48 h

Study these solved cases before continuing.
[[record]]
compound = "Cc1cc(-c2ccccc2)nc(Nc2cc3ccccc3[nH]2)n1"
target_desc = "SK-MEL-28 melanoma"
endpoint = "TGI"
result_value = "> 100 µM"

[[record]]
compound = "CC1CN(c2cc3c(cc2F)c(=O)c(C(=O)O)cn3-c2ccc(N3CCN(C)CC3)cn2)CC(C)N1 (stereo not drawn)"
target_desc = "SK-MEL-28 melanoma"
endpoint = "TGI"
result_value = "> 100 µM"


// switching to the query compound
Entry NS(=O)(=O)c1nnc(NS(=O)(=O)c2cccc3cccnc23)s1 , SK-MEL-28 melanoma data, TGI value: > 100 µM

====

Below is a list of entries, each paired with its recorded TGI value.
system: HOP-62 NSCLC; assay: NCI tumour cell line growth inhibition, 48 h

// known answers, use as guide
[[record]]
compound = "Cc1nnc(N/N=C/c2ccc([N+](=O)[O-])o2)[nH]c1=O"
target_desc = "HOP-62 NSCLC"
result_value = "> 68.2 µM"

[[record]]
compound = "C=C1c2c(n(S(=O)(=O)c3ccccc3)c3ccccc23)[C@@]2(C(=O)OC)CC3C=CC2N1C3"
target_desc = "HOP-62 NSCLC"
result_value = "> 100 µM"

[[record]]
compound = "N#Cc1sc2c(c1OC(=O)c1ccco1)c(=O)n(-c1ccccc1)c(=S)n2-c1ccccc1"
target_desc = "HOP-62 NSCLC"
result_value = "> 100 µM"


Entry C[Si](C)(C)OC1(C#N)c2ccccc2CCCC12CCCC2 (stereo unspecified) , TGI reported as > 100 µM

compound Cc1ccc(/C=c2\c(=O)[nH]c3nc4ccccc4c(=O)n23)cc1 , TGI observed: > 100 µM

The recorded TGI for entry CCOC(=O)c1nc2ccccc2nc1Nc1ccc(C(=O)OC)s1 equals > 100 µM

====

test system: OVCAR-8 ovarian; test: NCI tumour cell line growth inhibition, 48 h
Listing of entries alongside the reported TGI.

Solved entries (count: 2):
[[record]]
compound = "C=CCC1(CN(C)C)CC/C(=C\\c2ccc3c(c2)OCO3)C1=O (stereo not drawn)"
endpoint = "TGI"
result_value = "> 100 µM"

[[record]]
compound = "CCCN=C1NC(C)=CSC(Nc2ccccc2)=C1C#N"
endpoint = "TGI"
result_value = "> 100 µM"


We next turn to a different compound, shown below.
Field TGI (entry O=C(CC(=O)N1N=C(c2ccccc2)C(N=Nc2ccc(S(=O)(=O)CCOS(=O)(=O)O)cc2)C1=O)Nc1ccc(Cl)cc1 (stereo not drawn) ) reads > 100 µM

====

test system: SN12C renal; assay: NCI tumour cell line growth inhibition, 48 h
ENDPOINT: TGI

[[record]]
compound = "CCCCCCCCCC1CC(=O)OC2=C1C(=O)CCC2 (stereo not drawn)"
endpoint = "TGI"
result_value = "> 100 µM"

[[record]]
compound = "CSc1nnnc2ccccc12"
endpoint = "TGI"
result_value = "> 100 µM"


Let us examine a further case.
Sample O=C(O)c1cc(NCc2cc(O)ccc2O)ccc1O ; TGI observed: > 100 µM

====

tested on: NCI-H226 lung; assay: NCI tumour cell line growth inhibition, 48 h
Listing of recorded TGI by entry.
Please state the figure in µM; there is no need to write the unit.

[[record]]
compound = "Nc1ccc(C#Cc2ccccc2C#CCCCCO)cc1"
endpoint = "TGI"
result_value = 40.5

[[record]]
compound = "C=CCc1c(O)c(C(=O)/C=C/c2ccc(Cl)cc2)c(OC)c2ccoc12"
endpoint = "TGI"
result_value = 2.97

[[record]]
compound = "CCOC(=O)N1CCC(N=C2CSc3nnc(-c4cc(C(F)(F)F)cc(C(F)(F)F)c4)n3N2)CC1"
endpoint = "TGI"
result_value = 5.02

[[record]]
compound = "Oc1c(C(c2ccc(F)cc2)N2CCCCC2)ccc2cncnc12 (centres undefined)"
endpoint = "TGI"
result_value = 19.4


Form: item CCN1CCN(c2ccc(NC(=O)Nc3nc4ccc(-c5ccccc5OC)cc4s3)cc2)CC1 ; test system NCI-H226 lung; TGI: 4.52

Field TGI (NCI-H226 lung), entry C[C@@H]1CC[C@@H]2[C@@H]1[C@H](OC(=O)/C=C/C1CCCCC1)[C@]1(C3CCCCC3)C[C@@H](OC(=O)CO)[C@@]2(C)O1 : 28

====

test system: MDA-MB-231 breast; test: NCI tumour cell line growth inhibition, 48 h; in the data active = GI50 below about 0.43 µM; inactive = the rest
Your reply should match one of these outcome classes. active, inactive

Some solved entries appear below for comparison.
[[record]]
compound = "COC(=O)Nc1nc2ccc(C(=O)c3cccc(I)c3)cc2[nH]1"
target_desc = "MDA-MB-231 breast"
qualitative_label = "active"

[[record]]
compound = "O=C(Nc1ccc(Cl)c(Cl)c1)c1ccc(NC2=C(Cl)C(=O)N(Cc3ccccc3)C2=O)cc1"
target_desc = "MDA-MB-231 breast"
qualitative_label = "inactive"

[[record]]
compound = "COc1nn(C)cc1Nc1nccc(-c2c[nH]c3c(NC(=O)[C@@H](C)N4CCN(C)CC4)cccc23)n1"
target_desc = "MDA-MB-231 breast"
qualitative_label = "inactive"

[[record]]
compound = "Nc1ccc(C#Cc2ccccc2C#CCCCCO)cc1"
target_desc = "MDA-MB-231 breast"
qualitative_label = "inactive"

[[record]]
compound = "Nc1nc(N)c2c(ccc3c2ccn3Cc2cccc([N+](=O)[O-])c2)n1"
target_desc = "MDA-MB-231 breast"
qualitative_label = "inactive"

[[record]]
compound = "COC(=O)[C@]1(C)CCC[C@@]2(C)C3=C(CC[C@H]12)C[C@@H](CC(OC(C)=O)OC(C)=O)[C@@H](C)C3"
target_desc = "MDA-MB-231 breast"
qualitative_label = "inactive"

[[record]]
compound = "NC1CC(=O)c2c(-c3cccs3)sc(-c3cccs3)c21 (configuration not stated)"
target_desc = "MDA-MB-231 breast"
qualitative_label = "inactive"

[[record]]
compound = "Nc1nc(-c2ccc3c(c2)/C(=C\\c2cc(Br)c(O)c(Br)c2)C(=O)N3)cs1"
target_desc = "MDA-MB-231 breast"
qualitative_label = "inactive"


Assay result, entry C[C@@H]1CC[C@@H]2[C@@H]1[C@H](OC(=O)/C=C/C1CCCCC1)[C@]1(C3CCCCC3)C[C@@H](OC(=O)CO)[C@@]2(C)O1 — outcome?
inactive

In this assay, the call recorded for O=C(Nc1nc2c(C(F)(F)F)cccc2s1)c1cc(Cl)ccc1O was what?
active

Could you please tell me the result logged for COc1ccc2c3ccnc(C(F)(F)F)c3n(CCCCN)c2c1 in this assay?
inactive

Fill in: this test's call for CC(=O)C1=C(C)N(Cc2ccccc2)C2(O)C=CC(=O)C3=C(O)c4ccccc4C(=O)C312 (configuration not stated) is ___
inactive

Hey, just so you know, these numbers are from PubChem BioAssay (NCI).
